Exercise: for every item that follows, state its recorded melting point.

Supply measured melting point of `c1ccc(-c2ccccc2-c2cn(CCCCCCn3cc(-c4cccnc4)nn3)nn2)cc1` in your reply.
139 to 140 °C

Supply measured melting point of `c1ccc(OCCCCCCn2cc(-c3cccnc3)nn2)cc1` in your reply.
74 to 75 °C

Supply measured melting point of `c1ccc(OCCCCCCCn2cc(-c3cccnc3)nn2)cc1` in your reply.
90.5 to 91 °C

Supply measured melting point of `O=C(NCCCCCCCn1cc(-c2cccnc2)nn1)c1ccccc1` in your reply.
123 to 124 °C

Supply measured melting point of `c1ccc(-c2ccccc2-c2cn(CCc3ccc(Cn4cc(-c5cccnc5)nn4)cc3)nn2)cc1` in your reply.
139 to 141 °C

Supply measured melting point of `O=C(NCCCCCCCCn1cc(-c2cccnc2)nn1)Nc1ccccc1-c1ccccc1` in your reply.
90 to 95 °C

Supply measured melting point of `O=C(Nc1ccccc1-c1ccccc1)OCCCCCCCCn1cc(-c2cccnc2)nn1` in your reply.
81 to 85 °C

Supply measured melting point of `O=C(Nc1ccccc1-c1ccccc1)OCCc1ccc(Cn2cc(-c3cccnc3)nn2)cc1` in your reply.
131 to 132 °C

Supply measured melting point of `NC(=O)c1ccccc1-c1ccccc1C(=O)NCCCCCCCn1cc(-c2cccnc2)nn1` in your reply.
100 to 101 °C

Supply measured melting point of `c1ccc(OCCCCCCCCn2cc(-c3cccnc3)nn2)cc1` in your reply.
102 to 103 °C

====

run_description: Microsomal stability with rat liver microsomes
Format: in vitro ADME, Male Wistar rat
details: 50 μM substrate, 1.0 mg/mL protein, 60 minutes at 37° C., pH 7.4
Exercise: for every item that follows, state its recorded RLM stability % substrate residue (area peak).

Supply measured RLM stability % substrate residue (area peak) of `O=C(NCCc1ccc(Cn2cc(-c3cccnc3)nn2)cc1)c1ccccc1-c1ccccc1` in your reply.
>99%

Supply measured RLM stability % substrate residue (area peak) of `O=C(NCCCCCCCn1cc(-c2cccnc2)nn1)c1ccccc1-c1cccnc1` in your reply.
>99%

Supply measured RLM stability % substrate residue (area peak) of `O=C(NCCCCCCCn1cc(-c2cccnc2)nn1)c1ccccc1-c1ccccc1` in your reply.
>99%

Supply measured RLM stability % substrate residue (area peak) of `O=C(NCCc1ccc(Cn2cc(-c3cccnc3)nn2)cc1)Nc1ccccc1-c1ccccc1` in your reply.
>99%

Supply measured RLM stability % substrate residue (area peak) of `c1ccc(-c2ccccc2OCCc2ccc(Cn3cc(-c4cccnc4)nn3)cc2)cc1` in your reply.
>97%

Supply measured RLM stability % substrate residue (area peak) of `c1ccc(-c2ccccc2OCCCc2ccc(-n3cc(-c4cccnc4)nn3)cc2)cc1` in your reply.
>92%

Supply measured RLM stability % substrate residue (area peak) of `O=S(=O)(NCCCCCCCCn1cc(-c2cccnc2)nn1)c1ccccc1-c1ccccc1` in your reply.
>99%

Supply measured RLM stability % substrate residue (area peak) of `O=C(Nc1ccc(CCCn2cc(-c3cccnc3)nn2)cc1)c1ccccc1-c1ccccc1` in your reply.
>99%

Supply measured RLM stability % substrate residue (area peak) of `c1ccc(-c2ccccc2OCCCCCCn2cc(-c3cccnc3)nn2)cc1` in your reply.
>98%

Supply measured RLM stability % substrate residue (area peak) of `O=C(NCCCCCCCn1cc(-c2cccnc2)nn1)Nc1ccccc1-c1ccccc1` in your reply.
>95%

Supply measured RLM stability % substrate residue (area peak) of `c1ccc(-c2ccccc2-c2cn(CCCCCCCn3cc(-c4cccnc4)nn3)nn2)cc1` in your reply.
>99%

Supply measured RLM stability % substrate residue (area peak) of `c1cncc(-c2cn(CCCCCCOc3ccccc3-c3cccnc3)nn2)c1` in your reply.
>95%

====

run_description: Microsomal stability with human liver microsomes
Assay type: in vitro ADME
details: 50 μM substrate, 1.0 mg/mL protein, 60 minutes at 37° C., pH 7.4
experimental_readout: HLM stability % substrate residue (area peak)

Supply measured HLM stability % substrate residue (area peak) of `c1cncc(-c2cn(CCCCCCOc3ccccc3-c3cccnc3)nn2)c1` in your reply.
>99%

Supply measured HLM stability % substrate residue (area peak) of `O=C(NCCc1ccc(Cn2cc(-c3cccnc3)nn2)cc1)Nc1ccccc1-c1ccccc1` in your reply.
>99%

Supply measured HLM stability % substrate residue (area peak) of `c1ccc(-c2ccccc2OCCCCCCn2cc(-c3cccnc3)nn2)cc1` in your reply.
>96%

Supply measured HLM stability % substrate residue (area peak) of `O=C(NCCCCCCCn1cc(-c2cccnc2)nn1)c1ccccc1-c1ccccc1` in your reply.
>99%

Supply measured HLM stability % substrate residue (area peak) of `O=C(Nc1ccc(CCCn2cc(-c3cccnc3)nn2)cc1)c1ccccc1-c1ccccc1` in your reply.
>98%

Supply measured HLM stability % substrate residue (area peak) of `O=C(NCCCCCCCn1cc(-c2cccnc2)nn1)c1ccccc1-c1cccnc1` in your reply.
>96%

Supply measured HLM stability % substrate residue (area peak) of `O=C(NCCCCCCCn1cc(-c2cccnc2)nn1)Nc1ccccc1-c1ccccc1` in your reply.
>98%

Supply measured HLM stability % substrate residue (area peak) of `O=C(NCCc1ccc(Cn2cc(-c3cccnc3)nn2)cc1)c1ccccc1-c1ccccc1` in your reply.
>99%

Supply measured HLM stability % substrate residue (area peak) of `c1ccc(-c2ccccc2OCCCc2ccc(-n3cc(-c4cccnc4)nn3)cc2)cc1` in your reply.
>98%

Supply measured HLM stability % substrate residue (area peak) of `c1ccc(-c2ccccc2OCCc2ccc(Cn3cc(-c4cccnc4)nn3)cc2)cc1` in your reply.
>99%

Supply measured HLM stability % substrate residue (area peak) of `c1ccc(-c2ccccc2-c2cn(CCCCCCCn3cc(-c4cccnc4)nn3)nn2)cc1` in your reply.
>99%

Supply measured HLM stability % substrate residue (area peak) of `O=S(=O)(NCCCCCCCCn1cc(-c2cccnc2)nn1)c1ccccc1-c1ccccc1` in your reply.
>99%

====

Exercise: for every item that follows, state its recorded melting point.

Supply measured melting point of `O=C(NCCCCCCCn1cc(-c2cccnc2)nn1)c1ccccc1I` in your reply.
106 to 108 °C

Supply measured melting point of `c1ccc(-c2ccccc2-c2cn(CCCCCCCCn3cc(-c4cccnc4)nn3)nn2)cc1` in your reply.
136 to 140 °C

Supply measured melting point of `c1ccc(-c2ccccc2CNCCCCCCCn2cc(-c3cccnc3)nn2)cc1` in your reply.
86 to 91 °C

Supply measured melting point of `c1ccc(-c2cn(CCCCCCCn3cc(-c4cccnc4)nn3)nn2)cc1` in your reply.
143 to 144 °C

Supply measured melting point of `O=C(NCc1ccc(CCn2cc(-c3cccnc3)nn2)cc1)c1ccccc1-c1ccccc1` in your reply.
204 to 205 °C

Supply measured melting point of `c1ccc(-c2ccccc2CNCCCCCCn2cc(-c3cccnc3)nn2)cc1` in your reply.
55 to 58 °C

Supply measured melting point of `c1ccc(-c2ccccc2OCc2ccc(CCn3cc(-c4cccnc4)nn3)cc2)cc1` in your reply.
136 to 137 °C

Supply measured melting point of `O=C(NCCCc1ccc(-n2cc(-c3cccnc3)nn2)cc1)c1ccccc1-c1ccccc1` in your reply.
202 to 203 °C

Supply measured melting point of `c1ccc(-c2ccccc2OCCCc2ccc(-n3cc(-c4cccnc4)nn3)cc2)cc1` in your reply.
164 to 165 °C

Supply measured melting point of `c1ccc(-c2cn(CCCCCCn3cc(-c4cccnc4)nn3)nn2)cc1` in your reply.
172 to 173 °C

====

Exercise: for every item that follows, state its recorded pIC50.
Test system: SH-SY5Y, HeLa
run_description: MTT cell proliferation assay and trypan blue count (cell viability)
Format: cell-based
details: cells treated for 48 and 72 hours; read-out: IC50 values (inhibition of cellular proliferation, MTT assay and trypan blue assay)
pIC50: −log10 of the molar value.

Supply measured pIC50 of `c1ccc(-c2ccccc2OCCCCCCCn2cc(-c3cccnc3)nn2)cc1` in your reply.
> 6.52

Supply measured pIC50 of `O=C(Nc1ccccc1-c1ccccc1)OCCc1ccc(Cn2cc(-c3cccnc3)nn2)cc1` in your reply.
> 6.52

Supply measured pIC50 of `O=S(=O)(NCCCCCCCCn1cc(-c2cccnc2)nn1)c1ccccc1-c1ccccc1` in your reply.
> 6.52

Supply measured pIC50 of `O=C(NCCc1ccc(Cn2cc(-c3cccnc3)nn2)cc1)c1ccccc1-c1ccccc1` in your reply.
> 6.52

Supply measured pIC50 of `c1ccc(-c2ccccc2CNCCc2ccc(Cn3cc(-c4cccnc4)nn3)cc2)cc1` in your reply.
> 6.52

Supply measured pIC50 of `c1ccc(-c2ccccc2OCCc2ccc(Cn3cc(-c4cccnc4)nn3)cc2)cc1` in your reply.
> 6.52

Supply measured pIC50 of `O=C(Nc1ccccc1-c1ccccc1)OCCCCCCCn1cc(-c2cccnc2)nn1` in your reply.
> 6.52

Supply measured pIC50 of `O=C(NCCCCCCn1cc(-c2cccnc2)nn1)c1ccccc1-c1ccccc1` in your reply.
> 6.52

Supply measured pIC50 of `c1ccc(-c2ccccc2-c2cn(CCCCCCCCn3cc(-c4cccnc4)nn3)nn2)cc1` in your reply.
> 6.52

Supply measured pIC50 of `O=S(=O)(NCCCCCCCCn1cc(-c2cccnc2)nn1)c1ccccc1Br` in your reply.
> 6.52

Supply measured pIC50 of `O=C(NCCc1ccc(Cn2cc(-c3cccnc3)nn2)cc1)Nc1ccccc1-c1ccccc1` in your reply.
> 6.52

Supply measured pIC50 of `O=C(Nc1ccc(CCCn2cc(-c3cccnc3)nn2)cc1)c1ccccc1-c1ccccc1` in your reply.
> 6.52

Supply measured pIC50 of `O=C(NCCCCCCCn1cc(-c2cccnc2)nn1)Nc1ccccc1-c1ccccc1` in your reply.
> 6.52

Supply measured pIC50 of `O=C(NCCCCCCCCn1cc(-c2cccnc2)nn1)Nc1ccccc1-c1ccccc1` in your reply.
> 6.52

Supply measured pIC50 of `Cc1ccccc1-c1ccccc1C(=O)NCCCCCCCn1cc(-c2cccnc2)nn1` in your reply.
> 6.52

Supply measured pIC50 of `O=C(NCCCCCCCn1cc(-c2cccnc2)nn1)c1ccccc1-c1cccnc1` in your reply.
> 6.52

Supply measured pIC50 of `c1ccc(-c2ccccc2-c2cn(CCCCCCCn3cc(-c4cccnc4)nn3)nn2)cc1` in your reply.
> 6.52

Supply measured pIC50 of `c1ccc(-c2ccccc2OCCCc2ccc(-n3cc(-c4cccnc4)nn3)cc2)cc1` in your reply.
> 6.52

Supply measured pIC50 of `O=C(NCCCCCCCn1cc(-c2cccnc2)nn1)c1ccccc1I` in your reply.
> 6.52

Supply measured pIC50 of `O=C(O)c1cccc(-c2ccccc2OCCCCCCn2cc(-c3cccnc3)nn2)c1` in your reply.
> 6.52
